Biological target: UniProt Q86X55
Test: Selectivity interaction (Scintillation proximity assay) EUB0000261b CARM1
reported metric: IC50

mol=CC(C)Oc1ccc(-c2c[nH]cc2CN(C)CCO)cc1 reported_metric=IC50 result="> 20 µM"

###

Molecular target: Protein-tyrosine kinase 6 (Homo sapiens, UniProt Q13882)
Sequence (Q13882 whole entry): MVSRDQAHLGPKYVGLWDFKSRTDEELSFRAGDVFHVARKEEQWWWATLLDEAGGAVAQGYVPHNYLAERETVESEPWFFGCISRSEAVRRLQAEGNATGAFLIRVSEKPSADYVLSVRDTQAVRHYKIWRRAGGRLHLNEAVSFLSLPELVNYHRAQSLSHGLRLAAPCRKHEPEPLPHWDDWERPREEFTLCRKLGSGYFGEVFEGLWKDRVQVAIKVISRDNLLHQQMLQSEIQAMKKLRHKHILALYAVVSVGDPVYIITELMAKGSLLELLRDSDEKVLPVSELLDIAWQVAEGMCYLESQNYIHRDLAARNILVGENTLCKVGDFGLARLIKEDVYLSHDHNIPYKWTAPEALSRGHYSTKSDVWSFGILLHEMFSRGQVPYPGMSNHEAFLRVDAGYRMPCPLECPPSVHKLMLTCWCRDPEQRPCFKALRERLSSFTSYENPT
Assay: Selectivity interaction (KinaseProfiler screening (Millipore, enzymatic assay)) EUB0000601a PTK6
reported metric: IC50

mol=CCc1cc(Nc2nccc(-c3c(-c4ccc(OC)c(C(=O)Nc5c(F)cccc5F)c4)nc4ccccn34)n2)c(OC)cc1N1CCC(N2CCN(S(C)(=O)=O)CC2)CC1 reported_metric=IC50 result="357 nM"

###

Biological target: Protein arginine N-methyltransferase 6 (Homo sapiens)
Experiment: Selectivity interaction (Scintillation proximity assays) EUB0000255b PRMT6
pIC50: −log10 of the molar value.
reported metric: pIC50

mol=COCCN1CCC(c2cc(CN(C)C(=O)c3cccc(Oc4ccccc4)c3)ccn2)CC1 assay_target="Protein arginine N-methyltransferase 6 (Homo sapiens)" reported_metric=pIC50 result="< 5.00"

###

Target: Cell division cycle 7-related protein kinase (Homo sapiens)
Sequence (O00311 whole entry): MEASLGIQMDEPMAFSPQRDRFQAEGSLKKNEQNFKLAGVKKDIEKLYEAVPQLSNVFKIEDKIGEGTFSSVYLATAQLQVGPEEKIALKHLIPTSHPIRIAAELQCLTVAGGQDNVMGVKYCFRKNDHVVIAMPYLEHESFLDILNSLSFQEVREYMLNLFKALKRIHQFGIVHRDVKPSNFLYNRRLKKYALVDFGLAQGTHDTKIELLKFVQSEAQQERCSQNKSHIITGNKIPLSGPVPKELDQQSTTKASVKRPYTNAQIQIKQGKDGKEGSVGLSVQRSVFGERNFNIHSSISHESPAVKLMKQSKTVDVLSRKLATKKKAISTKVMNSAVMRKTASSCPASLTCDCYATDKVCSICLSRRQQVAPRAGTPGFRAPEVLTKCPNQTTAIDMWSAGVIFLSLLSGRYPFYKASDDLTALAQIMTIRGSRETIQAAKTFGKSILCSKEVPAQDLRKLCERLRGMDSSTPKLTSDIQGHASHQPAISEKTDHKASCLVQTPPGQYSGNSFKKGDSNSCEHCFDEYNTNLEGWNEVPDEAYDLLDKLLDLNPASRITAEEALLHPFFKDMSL
Test: Selectivity interaction (Kinase panel (Enzyme activity assay)) EUB0000612a CDC7
pIC50: −log10 of the molar value.
reported metric: pIC50

mol=CCc1cccc(CC)c1NC(=O)c1nn(C)c2c1CCc1cnc(Nc3ccc(C(=O)NC4CCN(C)CC4)cc3OC(F)(F)F)nc1-2 result="< 5.00"

###

Biological target: Epidermal growth factor receptor (Homo sapiens)
Experiment: Selectivity interaction (Kinase panel (33PanQinase(R) Activity Assay)) EUB0000877a EGFR
reported metric: IC50

mol=CCC(=O)N1CC[C@H](Nc2ncnc3c2CN(c2cnc(OC)c(C(F)(F)F)c2)CC3)C1 reported_metric=IC50 result="> 10 µM"

###

Molecular target: Dual specificity tyrosine-phosphorylation-regulated kinase 1A (Homo sapiens)
Assay: Selectivity interaction (Radioactive assay (Reaction Biology)) EUB0001046a DYRK1A
reported metric: IC50

mol=CN(c1ncccc1CNc1ccnc(-c2cc3cc(Cl)ccc3[nH]2)n1)S(C)(=O)=O result="> 10 µM"

###

Target: UniProtKB P06239
Assay: Selectivity interaction (Kinase panel (33PanQinase(R) Activity Assay)) EUB0000877a LCK
reported metric: IC50

mol=CCC(=O)N1CC[C@H](Nc2ncnc3c2CN(c2cnc(OC)c(C(F)(F)F)c2)CC3)C1 result="> 10 µM"

###

Molecular target: Vascular endothelial growth factor receptor 2 (Homo sapiens)
Test: Selectivity interaction (CEREP Wide Ligand Profile screen (panel of receptors, ion channels, and transporters)) EUB0001542aTs KDR
reported metric: IC50 (nM)

mol=Cn1cc(Nc2nccc(N3CC4CCC(C3)N4C(=O)[C@@H]3CC3(F)F)n2)cn1 assay_target="Vascular endothelial growth factor receptor 2 (Homo sapiens)" number=1600

###

Molecular target: Insulin-like growth factor 1 receptor (Homo sapiens, UniProt P08069)
Sequence (P08069 31-736 limits assumed): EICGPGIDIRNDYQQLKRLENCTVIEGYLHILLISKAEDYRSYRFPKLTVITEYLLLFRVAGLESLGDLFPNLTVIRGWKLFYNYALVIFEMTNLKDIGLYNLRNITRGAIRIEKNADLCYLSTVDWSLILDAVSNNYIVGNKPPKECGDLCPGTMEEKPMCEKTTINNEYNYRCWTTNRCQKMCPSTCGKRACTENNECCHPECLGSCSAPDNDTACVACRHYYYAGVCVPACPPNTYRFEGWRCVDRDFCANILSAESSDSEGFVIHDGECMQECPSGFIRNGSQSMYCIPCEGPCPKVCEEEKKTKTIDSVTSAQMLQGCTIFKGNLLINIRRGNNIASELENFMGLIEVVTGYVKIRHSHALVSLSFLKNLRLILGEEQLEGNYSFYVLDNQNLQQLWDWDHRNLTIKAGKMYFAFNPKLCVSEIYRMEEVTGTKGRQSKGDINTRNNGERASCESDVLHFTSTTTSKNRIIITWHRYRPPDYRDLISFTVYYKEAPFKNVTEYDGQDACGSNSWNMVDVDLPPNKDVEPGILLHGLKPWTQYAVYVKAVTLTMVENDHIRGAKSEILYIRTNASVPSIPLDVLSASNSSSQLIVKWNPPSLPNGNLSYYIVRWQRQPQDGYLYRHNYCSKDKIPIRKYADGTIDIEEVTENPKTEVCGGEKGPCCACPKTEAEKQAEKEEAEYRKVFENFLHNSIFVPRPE
Sequence (P08069 741-1367 limits assumed): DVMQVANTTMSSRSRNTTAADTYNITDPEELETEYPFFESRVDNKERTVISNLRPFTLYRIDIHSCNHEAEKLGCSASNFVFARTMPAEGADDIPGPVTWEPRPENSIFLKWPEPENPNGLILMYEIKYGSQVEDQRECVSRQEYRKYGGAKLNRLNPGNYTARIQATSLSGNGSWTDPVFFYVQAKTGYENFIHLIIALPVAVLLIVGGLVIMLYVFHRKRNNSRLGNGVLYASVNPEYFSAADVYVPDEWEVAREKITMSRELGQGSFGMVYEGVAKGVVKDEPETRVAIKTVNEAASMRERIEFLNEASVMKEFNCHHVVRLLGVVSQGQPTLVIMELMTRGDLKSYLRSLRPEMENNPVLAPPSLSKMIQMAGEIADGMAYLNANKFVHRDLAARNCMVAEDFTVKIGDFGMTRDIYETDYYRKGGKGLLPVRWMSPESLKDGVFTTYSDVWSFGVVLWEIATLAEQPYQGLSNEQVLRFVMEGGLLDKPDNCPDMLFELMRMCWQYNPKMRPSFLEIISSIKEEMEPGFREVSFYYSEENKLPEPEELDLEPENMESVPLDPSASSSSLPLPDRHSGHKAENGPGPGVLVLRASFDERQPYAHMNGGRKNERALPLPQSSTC
Test: Selectivity interaction (Kinase panel (33PanQinase(R) Activity Assay)) EUB0000877a IGF1R
reported metric: IC50

mol=CCC(=O)N1CC[C@H](Nc2ncnc3c2CN(c2cnc(OC)c(C(F)(F)F)c2)CC3)C1 result="> 10 µM"

###

Biological target: 4-aminobutyrate aminotransferase, mitochondrial (Homo sapiens)
Sequence (P80404 whole entry): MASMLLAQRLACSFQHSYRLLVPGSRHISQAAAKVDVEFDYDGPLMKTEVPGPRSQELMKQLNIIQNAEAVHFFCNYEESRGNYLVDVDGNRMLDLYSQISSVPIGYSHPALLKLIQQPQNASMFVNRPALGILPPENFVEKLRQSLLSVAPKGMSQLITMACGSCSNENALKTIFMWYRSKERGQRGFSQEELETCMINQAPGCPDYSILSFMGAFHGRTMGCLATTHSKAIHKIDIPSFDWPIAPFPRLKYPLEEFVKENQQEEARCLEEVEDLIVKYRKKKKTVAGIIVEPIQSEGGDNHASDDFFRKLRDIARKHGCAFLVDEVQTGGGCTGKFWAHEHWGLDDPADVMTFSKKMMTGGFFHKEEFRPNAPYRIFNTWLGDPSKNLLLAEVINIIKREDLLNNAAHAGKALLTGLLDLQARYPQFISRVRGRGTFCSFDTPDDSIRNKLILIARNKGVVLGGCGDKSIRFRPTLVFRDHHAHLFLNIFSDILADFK
Assay: Selectivity interaction (GPCR panel (PDSP screen)) EUB0000318b ABAT
pKi: −log10 of the molar value.
reported metric: pKi

mol=O=C(NC[C@@H]1[C@H]2CN(C(=O)OCc3cc(C(F)(F)F)cc(C(F)(F)F)c3)C[C@@H]12)c1ccc2[nH]nnc2c1 assay_target="4-aminobutyrate aminotransferase, mitochondrial (Homo sapiens)" number=5.59

###

Target: Cholecystokinin receptor type A (Homo sapiens)
Sequence (P32238 whole entry): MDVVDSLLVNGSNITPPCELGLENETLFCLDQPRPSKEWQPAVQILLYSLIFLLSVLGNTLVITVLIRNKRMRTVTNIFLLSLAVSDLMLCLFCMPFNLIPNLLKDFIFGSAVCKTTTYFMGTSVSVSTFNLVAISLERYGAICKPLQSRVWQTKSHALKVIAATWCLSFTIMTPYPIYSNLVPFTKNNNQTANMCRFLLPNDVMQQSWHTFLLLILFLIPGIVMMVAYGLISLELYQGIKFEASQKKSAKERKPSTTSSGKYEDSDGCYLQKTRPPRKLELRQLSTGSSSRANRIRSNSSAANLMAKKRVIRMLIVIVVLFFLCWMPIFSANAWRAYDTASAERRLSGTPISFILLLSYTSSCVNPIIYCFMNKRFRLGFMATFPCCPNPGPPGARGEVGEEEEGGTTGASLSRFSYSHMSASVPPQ
Assay: Selectivity interaction (Cholecystokinin A receptor binding assay, human recombinant ) EUB0000877a CCKAR
pIC50: −log10 of the molar value.
reported metric: pIC50

compound="CCC(=O)N1CC[C@H](Nc2ncnc3c2CN(c2cnc(OC)c(C(F)(F)F)c2)CC3)C1 [LENIOLISIB]" result="< 4.52"

###

Target: Progesterone receptor (Homo sapiens, UniProt P06401)
Sequence (P06401 whole entry): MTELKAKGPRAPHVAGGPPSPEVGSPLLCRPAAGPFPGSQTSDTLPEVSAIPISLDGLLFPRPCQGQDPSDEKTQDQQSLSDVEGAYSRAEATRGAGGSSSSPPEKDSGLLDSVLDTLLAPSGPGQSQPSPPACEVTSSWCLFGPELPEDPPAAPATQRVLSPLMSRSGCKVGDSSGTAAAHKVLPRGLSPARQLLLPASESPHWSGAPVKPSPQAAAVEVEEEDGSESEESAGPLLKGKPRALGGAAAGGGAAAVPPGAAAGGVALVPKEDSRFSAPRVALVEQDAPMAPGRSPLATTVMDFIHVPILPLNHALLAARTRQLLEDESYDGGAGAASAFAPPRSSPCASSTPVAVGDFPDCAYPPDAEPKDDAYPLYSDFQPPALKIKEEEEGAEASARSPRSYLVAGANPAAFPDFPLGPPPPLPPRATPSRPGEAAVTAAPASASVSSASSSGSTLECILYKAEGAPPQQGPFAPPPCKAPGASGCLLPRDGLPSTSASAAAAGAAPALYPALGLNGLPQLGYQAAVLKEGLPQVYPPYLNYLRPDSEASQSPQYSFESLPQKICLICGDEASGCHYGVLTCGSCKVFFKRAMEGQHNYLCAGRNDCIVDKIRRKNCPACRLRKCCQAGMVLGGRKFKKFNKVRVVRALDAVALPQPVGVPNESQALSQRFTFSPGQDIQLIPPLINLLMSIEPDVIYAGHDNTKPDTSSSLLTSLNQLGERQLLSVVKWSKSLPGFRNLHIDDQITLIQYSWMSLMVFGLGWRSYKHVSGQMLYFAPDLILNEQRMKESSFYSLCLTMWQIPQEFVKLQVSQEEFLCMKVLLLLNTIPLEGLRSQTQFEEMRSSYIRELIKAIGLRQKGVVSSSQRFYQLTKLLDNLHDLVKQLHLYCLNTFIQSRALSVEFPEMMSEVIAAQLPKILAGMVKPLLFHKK
Test: Selectivity interaction (Progesteron receptor agonist/antagonist FRET assay, human recombinant) EUB0000877a PGR
reported metric: IC50

mol=CCC(=O)N1CC[C@H](Nc2ncnc3c2CN(c2cnc(OC)c(C(F)(F)F)c2)CC3)C1 result="> 30 µM"

###

Target: Ephrin type-A receptor 4 (Homo sapiens)
Sequence (P54764 whole entry): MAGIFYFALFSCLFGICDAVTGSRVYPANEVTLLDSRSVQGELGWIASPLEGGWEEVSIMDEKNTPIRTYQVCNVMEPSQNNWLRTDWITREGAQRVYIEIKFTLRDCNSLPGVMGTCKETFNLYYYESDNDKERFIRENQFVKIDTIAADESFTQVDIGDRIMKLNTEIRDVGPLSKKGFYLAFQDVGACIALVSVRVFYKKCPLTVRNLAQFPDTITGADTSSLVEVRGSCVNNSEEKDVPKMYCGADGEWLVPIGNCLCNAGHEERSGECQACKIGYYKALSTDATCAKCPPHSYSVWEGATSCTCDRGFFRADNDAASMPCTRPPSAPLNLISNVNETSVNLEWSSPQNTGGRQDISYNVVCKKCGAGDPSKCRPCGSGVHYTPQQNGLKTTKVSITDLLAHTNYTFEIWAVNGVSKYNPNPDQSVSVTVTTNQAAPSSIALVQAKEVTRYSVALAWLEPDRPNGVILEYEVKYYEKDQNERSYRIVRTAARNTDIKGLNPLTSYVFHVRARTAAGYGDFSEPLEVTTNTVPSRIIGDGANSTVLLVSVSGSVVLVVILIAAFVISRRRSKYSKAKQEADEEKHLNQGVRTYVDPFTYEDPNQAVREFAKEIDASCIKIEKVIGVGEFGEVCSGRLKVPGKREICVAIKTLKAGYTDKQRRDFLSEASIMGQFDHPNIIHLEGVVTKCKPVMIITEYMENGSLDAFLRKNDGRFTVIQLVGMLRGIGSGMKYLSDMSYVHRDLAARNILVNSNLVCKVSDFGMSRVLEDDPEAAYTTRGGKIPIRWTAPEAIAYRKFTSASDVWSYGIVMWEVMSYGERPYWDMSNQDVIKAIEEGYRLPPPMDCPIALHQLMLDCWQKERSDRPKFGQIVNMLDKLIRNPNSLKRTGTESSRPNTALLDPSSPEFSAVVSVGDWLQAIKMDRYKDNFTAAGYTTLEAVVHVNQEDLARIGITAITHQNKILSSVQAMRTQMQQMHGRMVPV
Assay: Selectivity interaction (Kinase panel (33PanQinase(R) Activity Assay)) EUB0000877a EPHA4
pIC50: −log10 of the molar value.
reported metric: pIC50

compound="CCC(=O)N1CC[C@H](Nc2ncnc3c2CN(c2cnc(OC)c(C(F)(F)F)c2)CC3)C1 [LENIOLISIB]" result="< 5.00"

###

Molecular target: Atypical kinase COQ8A, mitochondrial (Homo sapiens, UniProt Q8NI60)
Sequence (Q8NI60 whole entry): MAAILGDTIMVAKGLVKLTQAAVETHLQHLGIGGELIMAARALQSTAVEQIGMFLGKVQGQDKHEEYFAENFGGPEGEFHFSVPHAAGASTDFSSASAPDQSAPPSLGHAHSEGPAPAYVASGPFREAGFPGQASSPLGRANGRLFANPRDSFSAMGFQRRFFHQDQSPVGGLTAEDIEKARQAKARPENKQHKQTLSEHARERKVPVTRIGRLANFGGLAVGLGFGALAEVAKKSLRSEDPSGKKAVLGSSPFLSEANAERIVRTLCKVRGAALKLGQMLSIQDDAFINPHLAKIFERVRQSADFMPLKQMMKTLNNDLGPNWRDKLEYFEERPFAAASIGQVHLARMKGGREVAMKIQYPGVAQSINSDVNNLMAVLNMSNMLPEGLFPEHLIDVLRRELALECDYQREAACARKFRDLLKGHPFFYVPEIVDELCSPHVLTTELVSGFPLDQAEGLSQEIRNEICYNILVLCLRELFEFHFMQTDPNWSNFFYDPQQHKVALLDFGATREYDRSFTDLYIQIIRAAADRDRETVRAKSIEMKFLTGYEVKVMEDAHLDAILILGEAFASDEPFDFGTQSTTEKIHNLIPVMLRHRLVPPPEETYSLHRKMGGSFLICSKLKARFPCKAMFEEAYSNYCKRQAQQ
Assay: Selectivity interaction (Competition-binding assay (DiscoverX)) EUB0000229b ADCK3
pKd: −log10 of the molar value.
reported metric: pKd

mol=COc1cc(N(C)c2ccnc3ccc(C(F)(F)F)cc23)cc(OC)c1OC result="< 5.00"

###

Target: UniProtKB P23458
Assay: Selectivity interaction (Kinase panel (Enzymatic assay, microfluidic mobility shift readout, Caliper lifesciences, conc. ATP = Km for each kinase)) EUB0000678a JAK1
reported metric: IC50

compound="CCN1CCN(c2ccc(Nc3cc(N(C)C(=O)Nc4c(Cl)c(OC)cc(OC)c4Cl)ncn3)cc2)CC1 [INFIGRATINIB]" assay_target="UniProtKB P23458" result="> 10 µM"

###

Biological target: UniProt:P49841
Assay: Selectivity interaction (Enzymatic assay) EUB0001199aCl GSK3B
reported metric: IC50 (µM)

mol=CN1Cc2nccc(-c3cn(C)nc3-c3ccc(F)cc3)c2C1=O assay_target=UniProt:P49841 number=10

###

Target: Glycogen synthase kinase-3 beta (Homo sapiens)
Sequence (P49841 whole entry): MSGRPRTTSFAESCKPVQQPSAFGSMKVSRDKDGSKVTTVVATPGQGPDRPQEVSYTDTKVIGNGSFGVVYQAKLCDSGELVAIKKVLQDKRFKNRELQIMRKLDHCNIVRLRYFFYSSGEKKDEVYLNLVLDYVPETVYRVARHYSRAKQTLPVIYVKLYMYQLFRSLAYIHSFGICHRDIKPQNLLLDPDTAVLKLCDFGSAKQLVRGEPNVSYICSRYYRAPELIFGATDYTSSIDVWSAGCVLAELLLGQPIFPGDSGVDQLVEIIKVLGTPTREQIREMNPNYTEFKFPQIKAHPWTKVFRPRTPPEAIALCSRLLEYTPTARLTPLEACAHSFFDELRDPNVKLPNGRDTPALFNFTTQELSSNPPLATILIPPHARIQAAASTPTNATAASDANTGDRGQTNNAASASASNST
Experiment: Selectivity interaction (Kinase panel (33PanQinase(R) Activity Assay)) EUB0000877a GSK3B
reported metric: IC50

mol=CCC(=O)N1CC[C@H](Nc2ncnc3c2CN(c2cnc(OC)c(C(F)(F)F)c2)CC3)C1 result="> 10 µM"
